# credit: patent US7842469B2

# Experimental protocol: Bioluminescence emission spectra
# Assay type: physicochemical
# Measurement context: emission spectrum with native coelenterazine
# Experimental: Serum stability measurements were done by mixing 0.5 μl dilute Luciferase with either 20 μl mouse serum or 50 μl rat serum (Equitech-Bio, Kerrville, Tex.) placing the sample in a 37° C. incubator, and removing aliquots for activity testing. […] Emission spectra at ambient temperature were measured using a Triax 320 (Horiba Jobin Yvon, Edison, N.J.), which incorporates an optical grating device with a liquid N2 cooled CCD detector.
Result type: Wavelength (nm) mean

molecule="C124A/F262L: RLuc mutant C124A/F262L (protein) MASKVYDPEQRKRMITGPQWWARCKQMNVLDSFINYYDSEKHAENAVIFLHGNAASSYLWRHVVPHIEPVARCIIPDLIGMGKSGKSGNGSYRLLDHYKYLTAWFELLNLPKKIIFVGHDWGAALAFHYSYEHQDKIKAIVHAESVVDVIESWDEWPDIEEDIALIKSEEGEKMVLENNFFVETMLPSKIMRKLEPEEFAAYLEPFKEKGEVRRPTLSWPREIPLVKGGKPDVVQIVRNYNAYLRASDDLPKMFIESDPGFLSNAIVEGAKKFPNTEFVKVKGLHFSQEDAPDEMGKYIKSFVERVLKNEQ" obs_value=495
molecule="C124A/A143M: RLuc mutant C124A/A143M (protein) MASKVYDPEQRKRMITGPQWWARCKQMNVLDSFINYYDSEKHAENAVIFLHGNAASSYLWRHVVPHIEPVARCIIPDLIGMGKSGKSGNGSYRLLDHYKYLTAWFELLNLPKKIIFVGHDWGAALAFHYSYEHQDKIKAIVHMESVVDVIESWDEWPDIEEDIALIKSEEGEKMVLENNFFVETMLPSKIMRKLEPEEFAAYLEPFKEKGEVRRPTLSWPREIPLVKGGKPDVVQIVRNYNAYLRASDDLPKMFIESDPGFFSNAIVEGAKKFPNTEFVKVKGLHFSQEDAPDEMGKYIKSFVERVLKNEQ" obs_value=497
molecule="A55T/C124A: RLuc mutant A55T/C124A (protein) MASKVYDPEQRKRMITGPQWWARCKQMNVLDSFINYYDSEKHAENAVIFLHGNATSSYLWRHVVPHIEPVARCIIPDLIGMGKSGKSGNGSYRLLDHYKYLTAWFELLNLPKKIIFVGHDWGAALAFHYSYEHQDKIKAIVHAESVVDVIESWDEWPDIEEDIALIKSEEGEKMVLENNFFVETMLPSKIMRKLEPEEFAAYLEPFKEKGEVRRPTLSWPREIPLVKGGKPDVVQIVRNYNAYLRASDDLPKMFIESDPGFFSNAIVEGAKKFPNTEFVKVKGLHFSQEDAPDEMGKYIKSFVERVLKNEQ" obs_value=504
molecule="C124A/E195S/P196D: RLuc mutant C124A/E195S/P196D (protein) MASKVYDPEQRKRMITGPQWWARCKQMNVLDSFINYYDSEKHAENAVIFLHGNAASSYLWRHVVPHIEPVARCIIPDLIGMGKSGKSGNGSYRLLDHYKYLTAWFELLNLPKKIIFVGHDWGAALAFHYSYEHQDKIKAIVHAESVVDVIESWDEWPDIEEDIALIKSEEGEKMVLENNFFVETMLPSKIMRKLSDEEFAAYLEPFKEKGEVRRPTLSWPREIPLVKGGKPDVVQIVRNYNAYLRASDDLPKMFIESDPGFFSNAIVEGAKKFPNTEFVKVKGLHFSQEDAPDEMGKYIKSFVERVLKNEQ" obs_value=498
